test: Ceriodaphnia dubia 48-Hour Definitive Toxicity Test; type: in vivo; settings: Ceriodaphnia dubia, in vivo, other: aquatic exposure (compound in the test water)
ENDPOINT_NAME: LC50 at 48 h

{"COMPOUND": "OCn1cccn1", "ENDPOINT_NAME": "LC50 at 48 h", "EXPERIMENTAL_VALUE": "31.5 µg/mL"}
